Numbers sourced from the supplement of paper PMC10567573.

B1: MTMR15 (parent)
chain: YVKAKKSIDKDEEFAGSSPQSSKS

Variants of: B1
Experiment: protein stability index of a GFP-peptide fusion (GPS, HEK-293T) (PSI 1-6); higher = more stable;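 note: lentivirally expressed fusions sorted by FACS into six bins by GFP to DsRed ratio, PSI derived from sequencing read proportions per bin multiplied by bin number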
Conditions: c terminus: a fixed tail appended
Below, each of the variants is paired with its reported protein stability index value.
reportedProperty: protein stability index

[[record]]
mutantname = "D9C"
valueobserved = 2.98

[[record]]
mutantname = "S17C"
valueobserved = 3.01

[[record]]
mutantname = "G16N"
valueobserved = 2.98

[[record]]
mutantname = "S24M"
valueobserved = 3.02

